tested on: Escherichia coli TOP10; test: shrunken log2 fold change of peptide-encoding DNA abundance (4.5 h post-induction vs induction); higher = less antimicrobial activity (less host growth inhibition); details: time post-induction: 4.5 h; library: site-saturation at positions 5, 18, 19, 20
Measurement Type: shrunken log2 fold change
Give the figure only, with no unit attached.

Study these solved cases before continuing.
{"columns": ["Query Sequence", "Endpoint Value"],
 "data": [
  ["RRIRYRPPRLPRPRPRPMMAPRP", -0.146],
  ["RRIRDRPPRLPRPRPRPICWPRP", 0.318],
  ["RRIRMRPPRLPRPRPRPSHMPRP", -0.146],
  ["RRIRKRPPRLPRPRPRPWKTPRP", 0.0649],
  ["RRIRWRPPRLPRPRPRPSPGPRP", -0.0366]
]}

Next sequence, please.
What value of measured shrunken log2 fold change is listed for RRIRSRPPRLPRPRPRPSGPPRP ?
0.0577

----------
test system: Escherichia coli TOP10; test: shrunken log2 fold change of peptide-encoding DNA abundance (4.5 h post-induction vs induction); higher = less antimicrobial activity (less host growth inhibition); conditions: time post-induction: 4.5 h; library: site-saturation at positions 5, 18, 19, 20
Listing of recorded shrunken log2 fold change by entry.
Give the figure only, with no unit attached.

Study these solved cases before continuing.
{"columns": ["Query Sequence", "Measurement Type", "Endpoint Value"],
 "data": [
  ["RRIRARPPRLPRPRPRPTNAPRP", "shrunken log2 fold change", 0.434],
  ["RRIRPRPPRLPRPRPRPTQEPRP", "shrunken log2 fold change", 0.617],
  ["RRIRWRPPRLPRPRPRPSFRPRP", "shrunken log2 fold change", -0.261]
]}

Next sequence, please.
What value of measured shrunken log2 fold change is listed for RRIRYRPPRLPRPRPRPELRPRP ?
0.363

----------
Listing of recorded shrunken log2 fold change by entry.
test system: Escherichia coli TOP10; assay: shrunken log2 fold change of peptide-encoding DNA abundance (4.5 h post-induction vs induction); higher = less antimicrobial activity (less host growth inhibition); settings: time post-induction: 4.5 h; library: site-saturation at positions 5, 18, 19, 20

{"columns": ["Query Sequence", "Endpoint Value"],
 "data": [
  ["RRIRRRPPRLPRPRPRPDCLPRP", -0.136],
  ["RRIRFRPPRLPRPRPRPMQFPRP", -0.0783],
  ["RRIRQRPPRLPRPRPRPVKVPRP", -0.00987]
]}

What value of measured shrunken log2 fold change is listed for RRIRSRPPRLPRPRPRPYIVPRP ?
-0.646

----------
Listing of recorded shrunken log2 fold change by entry.
system: Escherichia coli TOP10; test: shrunken log2 fold change of peptide-encoding DNA abundance (4.5 h post-induction vs induction); higher = less antimicrobial activity (less host growth inhibition); settings: time post-induction: 4.5 h; library: site-saturation at positions 5, 18, 19, 20
Give the figure only, with no unit attached.

Study these solved cases before continuing.
{"columns": ["Query Sequence", "shrunken log2 fold change"],
 "data": [
  ["RRIRKRPPRLPRPRPRPFQCPRP", -0.01],
  ["RRIRQRPPRLPRPRPRPWRKPRP", -0.0153],
  ["RRIRFRPPRLPRPRPRPVIPPRP", -0.102],
  ["RRIRWRPPRLPRPRPRPYHWPRP", -0.236],
  ["RRIRNRPPRLPRPRPRPNSFPRP", -0.00469],
  ["RRIRNRPPRLPRPRPRPHHGPRP", -0.00683],
  ["RRIRMRPPRLPRPRPRPGPNPRP", 0.641],
  ["RRIRCRPPRLPRPRPRPKSAPRP", 0.146]
]}

What value of measured shrunken log2 fold change is listed for RRIRARPPRLPRPRPRPFMNPRP ?
-0.0629

----------
system: Escherichia coli TOP10; test: shrunken log2 fold change of peptide-encoding DNA abundance (4.5 h post-induction vs induction); higher = less antimicrobial activity (less host growth inhibition); settings: time post-induction: 4.5 h; library: site-saturation at positions 5, 18, 19, 20
Label Criterion met for high-side shrunken log2 fold change (at or above -0.2) and Criterion not met for low-side shrunken log2 fold change (below it).

See these solved cases before continuing.
{"columns": ["Query Sequence", "Category Label"],
 "data": [
  ["RRIRDRPPRLPRPRPRPFFIPRP", "Criterion met"],
  ["RRIRWRPPRLPRPRPRPCKYPRP", "Criterion not met"],
  ["RRIRRRPPRLPRPRPRPSGVPRP", "Criterion met"],
  ["RRIRNRPPRLPRPRPRPIDTPRP", "Criterion met"],
  ["RRIRNRPPRLPRPRPRPTHVPRP", "Criterion met"]
]}

shrunken log2 fold change >= -0.2 for RRIRPRPPRLPRPRPRPGKLPRP ?
Criterion not met

----------
system: Escherichia coli TOP10; assay: shrunken log2 fold change of peptide-encoding DNA abundance (4.5 h post-induction vs induction); higher = less antimicrobial activity (less host growth inhibition); conditions: time post-induction: 4.5 h; library: site-saturation at positions 5, 18, 19, 20
Measurement Type: shrunken log2 fold change

{"columns": ["Query Sequence", "Endpoint Value"],
 "data": [
  ["RRIRCRPPRLPRPRPRPCDFPRP", -0.0328]
]}

Next sequence, please.
What value of measured shrunken log2 fold change is listed for RRIRIRPPRLPRPRPRPTRMPRP ?
0.0519

----------
Listing of recorded shrunken log2 fold change by entry.
test system: Escherichia coli TOP10; assay: shrunken log2 fold change of peptide-encoding DNA abundance (4.5 h post-induction vs induction); higher = less antimicrobial activity (less host growth inhibition); details: time post-induction: 4.5 h; library: site-saturation at positions 5, 18, 19, 20
Give the figure only, with no unit attached.

Study these solved cases before continuing.
{"columns": ["Query Sequence", "shrunken log2 fold change"],
 "data": [
  ["RRIRERPPRLPRPRPRPWDRPRP", -0.146],
  ["RRIRQRPPRLPRPRPRPIIYPRP", -0.858]
]}

Next sequence, please.
What value of measured shrunken log2 fold change is listed for RRIRERPPRLPRPRPRPKLWPRP ?
0.582

----------
test system: Escherichia coli TOP10; assay: shrunken log2 fold change of peptide-encoding DNA abundance (4.5 h post-induction vs induction); higher = less antimicrobial activity (less host growth inhibition); settings: time post-induction: 4.5 h; library: site-saturation at positions 5, 18, 19, 20
Label True for high-side shrunken log2 fold change (at or above 0.1) and False for low-side shrunken log2 fold change (below it).

See these solved cases before continuing.
{"columns": ["Query Sequence", "Category Label"],
 "data": [
  ["RRIRMRPPRLPRPRPRPEEEPRP", "False"],
  ["RRIRRRPPRLPRPRPRPRFDPRP", "True"],
  ["RRIRGRPPRLPRPRPRPSSDPRP", "True"]
]}

shrunken log2 fold change >= 0.1 for RRIRDRPPRLPRPRPRPAVPPRP ?
False

shrunken log2 fold change >= 0.1 for RRIRFRPPRLPRPRPRPHEGPRP ?
False

shrunken log2 fold change >= 0.1 for RRIRLRPPRLPRPRPRPKIKPRP ?
False

----------
Listing of recorded shrunken log2 fold change by entry.
tested on: Escherichia coli TOP10; assay: shrunken log2 fold change of peptide-encoding DNA abundance (4.5 h post-induction vs induction); higher = less antimicrobial activity (less host growth inhibition); conditions: time post-induction: 4.5 h; library: site-saturation at positions 5, 18, 19, 20

Study these solved cases before continuing.
{"columns": ["Query Sequence", "Target Under Test", "Endpoint Value"],
 "data": [
  ["RRIRIRPPRLPRPRPRPYNGPRP", "Escherichia coli TOP10", -0.0564],
  ["RRIRWRPPRLPRPRPRPDCTPRP", "Escherichia coli TOP10", 0.372],
  ["RRIRCRPPRLPRPRPRPSCKPRP", "Escherichia coli TOP10", -0.685],
  ["RRIRCRPPRLPRPRPRPRNAPRP", "Escherichia coli TOP10", 0.291],
  ["RRIRTRPPRLPRPRPRPVFSPRP", "Escherichia coli TOP10", -0.648]
]}

What value of measured shrunken log2 fold change is listed for RRIRERPPRLPRPRPRPARDPRP ?
0.19

What value of measured shrunken log2 fold change is listed for RRIRCRPPRLPRPRPRPKACPRP ?
0.0182

What value of measured shrunken log2 fold change is listed for RRIRRRPPRLPRPRPRPFESPRP ?
-0.0115

What value of measured shrunken log2 fold change is listed for RRIRGRPPRLPRPRPRPCANPRP ?
0.0504

What value of measured shrunken log2 fold change is listed for RRIRTRPPRLPRPRPRPLMTPRP ?
0.0717

----------
system: Escherichia coli TOP10; assay: shrunken log2 fold change of peptide-encoding DNA abundance (4.5 h post-induction vs induction); higher = less antimicrobial activity (less host growth inhibition); conditions: time post-induction: 4.5 h; library: site-saturation at positions 5, 18, 19, 20;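 further: peptides expressed intracellularly from a pBAD plasmid library in pooled LB shake-flask culture, induced with 0.3% L-arabinose, DNA abundance read by NGS, three biological replicates, DESeq2 with apeglm shrinkage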
Listing of recorded shrunken log2 fold change by entry.
Give the figure only, with no unit attached.

{"columns": ["Query Sequence", "shrunken log2 fold change"],
 "data": [
  ["RRIRARPPRLPRPRPRPVMCPRP", 0.0832],
  ["RRIRTRPPRLPRPRPRPGTCPRP", -0.00643],
  ["RRIRIRPPRLPRPRPRPILTPRP", -0.854]
]}

Next sequence, please.
What value of measured shrunken log2 fold change is listed for RRIRFRPPRLPRPRPRPLCTPRP ?
-0.137
